# System: Rattus norvegicus
# protocol_details: Antidyslipidemic activity in Charles foster rat assessed as decrease in triton WR-1339-induced triglyceride level in plasma at 100 mg/kg, po after 18 hrs relative to triton-treated rat
# Type: functional
# Design: scale not given: the % may be the effect or the level left
# Activity listing for each entry below
Only the number, expressed in %, is required.

Example compounds with recorded Activity:
{"compound": "CC(C)OC(=O)C(C)(C)Oc1ccc(C(=O)c2ccc(Cl)cc2)cc1 [FENOFIBRATE]", "unit_info": "%", "Activity": 33}
{"compound": "CC1CC[C@@H]2[C@](C)(CO)[C@H](O)CC[C@@]2(C)[C@@H]1CCC1C(=O)OC[C@H]1O (some centres undefined)", "unit_info": "%", "Activity": 15}
{"compound": "C=C1CC[C@@H]2[C@](C)(COS(=O)(=O)c3ccc(C)cc3)[C@H](O)CC[C@@]2(C)[C@@H]1C/C=C1/C(=O)OC[C@H]1OC(C)=O", "unit_info": "%", "Activity": 22}
{"compound": "Cc1ccc(C)c(OCCCC(C)(C)C(=O)O)c1", "unit_info": "%", "Activity": 28}
{"compound": "C=C1CC[C@@H]2[C@](C)(COS(=O)(=O)c3c(C)cc(C)cc3C)[C@H](O)CC[C@@]2(C)[C@@H]1C/C=C1/C(=O)OC[C@H]1O", "unit_info": "%", "Activity": 20}

Given the entry C=C1CC[C@@H]2[C@](C)(CO)[C@H](O)CC[C@@]2(C)[C@@H]1C/C=C1/C(=O)OC[C@H]1OC(C)=O , what Activity was observed with Rattus norvegicus?
15

Now this one: C=C1CC[C@@H]2[C@](C)(COC(C)=O)[C@H](OC(C)=O)CC[C@@]2(C)[C@@H]1C/C=C1/C(=O)OC[C@H]1OC(C)=O
18

Request: C=C1CC[C@@H]2[C@]3(C)COC(C)(C)O[C@@H]3CC[C@@]2(C)[C@@H]1C/C=C1/C(=O)OC[C@H]1OC(C)=O
13

# repeat for C=C1CC[C@@H]2[C@](C)(CO)[C@H](O)CC[C@@]2(C)[C@@H]1C/C=C1/C(=O)OC[C@H]1O [ANDROGRAPHOLIDE]
28

Quick one: C=C1CC[C@@H]2[C@](C)(COS(=O)(=O)c3ccc(C)cc3)[C@H](O)CC[C@@]2(C)[C@@H]1C/C=C1/C(=O)OC[C@H]1O
35

---

# protocol_details: Antioxidant activity assessed as reduction of microsomal lipid per-oxidation level by measuring formation of malondialdehyde at 200 ug/ml after 90 mins by spectrophotometric analysis relative to control
# Format: functional
# Set-up: scale not given: the % may be the effect or the level left
The reader will find reported Activity values listed item by item below.

For orientation, consider the following solved cases.
{"molecule": "Cc1c(C)c2c(c(C)c1O)CC[C@@](C)(CCC[C@H](C)CCC[C@H](C)CCCC(C)C)O2", "observed_measurement": "55%"}
{"molecule": "C=C1CC[C@@H]2[C@](C)(COS(=O)(=O)c3c(C)cc(C)cc3C)[C@H](O)CC[C@@]2(C)[C@@H]1C/C=C1/C(=O)OC[C@H]1OC(C)=O", "observed_measurement": "26%"}

Now consider the entry below.
Which Activity is reported for this molecule? CC1CC[C@@H]2[C@](C)(CO)[C@H](O)CC[C@@]2(C)[C@@H]1C/C=C1/C(=O)OC[C@H]1O (stereo partly drawn)
17%

---

# Test system: Rattus norvegicus
# protocol_details: Antidyslipidemic activity in Charles foster rat assessed as decrease in triton WR-1339-induced triglyceride level in plasma at 100 mg/kg, po after 18 hrs relative to triton-treated rat
# Type: functional
# Set-up: scale not given: the % may be the effect or the level left
Recorded measurements of Activity, one per entry
A number alone suffices; assume %.

{"compound": "C=C1CC[C@@H]2[C@](C)(CO)[C@H](O)CC[C@@]2(C)[C@@H]1C/C=C1\\C=COC1=O", "unit_info": "%", "Activity": 18}
{"compound": "C=C1CC[C@@H]2[C@]3(C)COC(C)(C)O[C@@H]3CC[C@@]2(C)[C@@H]1C/C=C1/C(=O)OC[C@H]1O", "unit_info": "%", "Activity": 15}
{"compound": "C=C1CC[C@@H]2[C@](C)(CO)[C@H](O)CC[C@@]2(C)[C@@H]1CCC1=CCOC1=O [DEOXYANDROGRAPHOLIDE]", "unit_info": "%", "Activity": 12}

Could you tell me which Activity is on file for CC1CC[C@@H]2[C@](C)(CO)[C@H](O)CC[C@@]2(C)[C@@H]1C/C=C1/C(=O)OC[C@H]1O (some centres undefined) ?
15

---

# System: Rattus norvegicus
# protocol_details: Antidyslipidemic activity in Charles foster rat assessed as decrease in triton WR-1339-induced total cholesterol level in plasma at 100 mg/kg, po after 18 hrs relative to triton-treated rat
# Format: functional
# Parameters: scale not given: the % may be the effect or the level left
We begin with a simple list: items and their reported Activity.
// note: answer is a bare numeric in %

Known results for molecules:
{"compound_structure": "C=C1CC[C@@H]2[C@]3(C)COC(C)(C)O[C@@H]3CC[C@@]2(C)[C@@H]1C/C=C1/C(=O)OC[C@H]1OC(C)=O", "observed_measurement": 16}
{"compound_structure": "C[C@]1(CO)[C@H]2CC[C@@]3(CO3)[C@@H](C/C=C3/C(=O)OC[C@H]3O)[C@]2(C)CC[C@H]1O", "observed_measurement": 15}
{"compound_structure": "C=C1CC[C@@H]2[C@](C)(COS(=O)(=O)c3ccc(C)cc3)[C@H](O)CC[C@@]2(C)[C@@H]1C/C=C1/C(=O)OC[C@H]1OC(C)=O", "observed_measurement": 20}

Turning now to a further record.
Need Activity of C=C1CC[C@@H]2[C@](C)(COC(C)=O)[C@H](OC(C)=O)CC[C@@]2(C)[C@@H]1C/C=C1/C(=O)OC[C@H]1OC(C)=O , thanks.
19

---

# System: Rattus norvegicus
# protocol_details: Antidyslipidemic activity in Charles foster rat assessed as decrease in triton WR-1339-induced triglyceride level in plasma at 100 mg/kg, po after 18 hrs relative to triton-treated rat
# Type: functional
# Set-up: scale not given: the % may be the effect or the level left
Known Activity of a selection of compounds
Answer with the number, then the unit.

Completed entries (count: 2):
{"compound": "C=C1CC[C@H]2[C@@](C)(CCC(=O)[C@@]2(C)C=O)[C@@H]1C/C=C1/C(=O)OC[C@H]1O", "Activity": "10%"}
{"compound": "C=C1CC[C@@H]2[C@](C)(COS(=O)(=O)c3c(C)cc(C)cc3C)[C@H](O)CC[C@@]2(C)[C@@H]1C/C=C1/C(=O)OC[C@H]1OC(C)=O", "Activity": "11%"}

Which measured Activity belongs to C=C1CC[C@@H]2[C@](C)(CO)[C@H](O)CC[C@@]2(C)[C@@H]1CCC1C(=O)OC[C@H]1O (some centres undefined) , tested on Rattus norvegicus?
11%

Follow-up item: C[C@]1(CO)[C@H]2CC[C@@]3(CO3)[C@@H](C/C=C3/C(=O)OC[C@H]3O)[C@]2(C)CC[C@H]1O
14%

# credit: ChEMBL document CHEMBL2434829
